meta.source: patent US8729061B2

- assayed.system: human Cat L (Homo sapiens (Human))
- Sequence (P07711 114-333): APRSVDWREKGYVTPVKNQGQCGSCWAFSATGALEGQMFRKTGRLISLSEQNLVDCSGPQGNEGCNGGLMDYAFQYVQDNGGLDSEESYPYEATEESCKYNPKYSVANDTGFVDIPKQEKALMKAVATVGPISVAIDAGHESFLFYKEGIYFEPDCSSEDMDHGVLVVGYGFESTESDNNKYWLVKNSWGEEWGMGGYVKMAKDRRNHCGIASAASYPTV
- test.description: Cathepsin enzyme inhibition assay (fluorogenic peptide substrate), Cat L
- Assay type: biochemical
- applied.conditions: enzyme 1 nM, substrate Z-Val-Val-Arg-AMC 20 μM, pH 6.5
pIC50: −log10 of the molar value.
Criterion: pIC50 meeting or surpassing 8. Met: 1 (yes). Not met: 0 (no).

> print(dat)
                                query.smiles  label.class
 1  CC(C)C[C@H](NC(=O)[C@@H]1C[C@@H](S(=O)(=O)c2ccccc2Cl)CN1C(=O)C1(c2ccc(Cl)cc2)CC1)C(=O)C(=O)NC1CC1       0 (no)
 2  CC[C@H](NC(=O)[C@@H]1C[C@@H](S(=O)(=O)c2ccc(O[C@@H](C)C(F)(F)F)cc2Cl)CN1C(=O)C1(c2ccc(Cl)cc2)CC1)C(=O)C(=O)NC1CC1       0 (no)
 3  CC[C@H](NC(=O)[C@@H]1C[C@@H](S(=O)(=O)c2ccc(F)cc2C(F)(F)F)CN1c1cc(C)nn1C1CCC1)C(=O)C(=O)NC1CC1       0 (no)
 4  CCC[C@H](NC(=O)[C@@H]1C[C@@H](S(=O)(=O)c2ccc(O[C@@H](C)C(F)(F)F)cc2Cl)CN1C(=O)C1(c2ccc(Cl)cc2)CC1)C(=O)C(=O)NC1CC1       0 (no)
 5  CC[C@H](NC(=O)[C@@H]1C[C@@H](S(=O)(=O)c2ccccc2Cl)CN1C(=O)C1(c2ccc(Cl)cc2)CC1)C(=O)c1nc2ccccc2o1       0 (no)
 6  CCC[C@H](NC(=O)[C@@H]1C[C@@H](S(=O)(=O)c2ccccc2Cl)CN1C(=O)C1(c2ccc(Cl)cc2)CC1)C(=O)C(=O)NCC(F)(F)F       0 (no)
 7  CC[C@H](NC(=O)[C@@H]1C[C@@H](S(=O)(=O)c2ccccc2Cl)CN1C(=O)C1(c2ccc(Cl)cc2)CC1)C(=O)C(=O)NCCc1ccccc1      1 (yes)
 8  CC[C@H](NC(=O)[C@@H]1C[C@@H](S(=O)(=O)c2ccccc2Cl)CN1C(=O)C1(c2ccc(Cl)cc2)CC1)C(=O)C(=O)NCC(C)C      1 (yes)
 9  CC[C@H](NC(=O)[C@@H]1C[C@@H](S(=O)(=O)c2ccc(N3CCOCC3)cc2Cl)CN1C(=O)C1(c2ccc(Cl)cc2)CC1)C(=O)C(=O)NC1CC1       0 (no)
10  CC(C)[C@H](NC(=O)[C@@H]1C[C@@H](S(=O)(=O)c2ccccc2Cl)CN1C(=O)C1(c2ccc(Cl)cc2)CC1)C(=O)C(=O)NC1CC1      1 (yes)
11  CC(C)(NC(=O)[C@@H]1C[C@@H](S(=O)(=O)c2ccccc2Cl)CN1C(=O)C1(c2ccc(Cl)cc2)CC1)C(=O)C(=O)NC1CC1       0 (no)
12  CCC[C@H](NC(=O)[C@@H]1C[C@@H](S(=O)(=O)c2ccc(N3CCOCC3)cc2Cl)CN1C(=O)C1(c2ccc(Cl)cc2)CC1)C(=O)C(=O)NC1CC1       0 (no)

###

- assayed.system: human Cat B (Homo sapiens (Human), UniProt P07858)
Examples of molecules with documented IC50 follow.
value.type: IC50

> print(dat)
                                    molecule  test.value
 1  CCCC(C)NC(=O)C(=O)[C@H](CC)NC(=O)[C@@H]1C[C@@H](S(=O)(=O)c2ccccc2Cl)CN1C(=O)C1(c2ccc(Cl)cc2)CC1 (some centres unmarked)      350 nM
 2  CC[C@H](NC(=O)[C@@H]1C[C@@H](S(=O)(=O)c2ccc(OCC(F)(F)F)cc2Cl)CN1C(=O)C1(c2ncc(Cl)cc2F)CC1)C(=O)C(=O)NC1CC1      829 nM
 3  CC[C@H](NC(=O)[C@@H]1C[C@@H](S(=O)(=O)c2ccccc2Cl)CN1C(=O)C1(c2ccc(Cl)cc2)CC1)C(=O)C(=O)NCCc1cccc2ccccc12     68.8 nM
 4  CCC[C@H](NC(=O)[C@@H]1C[C@@H](S(=O)(=O)c2ccccc2Cl)CN1C(=O)C1(c2ccc(Cl)cc2)CC1)C(=O)C(=O)NCC(F)(F)F      366 nM
 5  CCCCNC(=O)C(=O)[C@H](CCC)NC(=O)[C@@H]1C[C@@H](S(=O)(=O)c2ccccc2Cl)CN1C(=O)C1(c2ccc(Cl)cc2)CC1     29.4 nM
 6  CC[C@H](NC(=O)[C@@H]1C[C@@H](S(=O)(=O)c2ccccc2Cl)CN1C(=O)C1(c2ccc(Br)cc2F)CC1)C(=O)C(=O)NC1CC1      150 nM
 7  CC[C@H](NC(=O)[C@@H]1C[C@@H](S(=O)(=O)c2ccc(Br)cc2C(F)(F)F)CN1c1cc(C)nn1C1CCC1)C(=O)C(=O)NC1CC1     1300 nM
 8  CC[C@H](NC(=O)[C@@H]1C[C@@H](S(=O)(=O)c2ccccc2Cl)CN1C(=O)C1(c2ccc(Cl)cc2)CC1)C(=O)C(=O)NCCc1ccc2ccccc2c1      172 nM
 9  CC[C@H](NC(=O)[C@@H]1C[C@@H](S(=O)(=O)c2ccccc2Cl)CN1C(=O)C1(c2ccc(Cl)cc2F)CC1)C(=O)C(=O)NC1CC1      142 nM
10  CC[C@H](NC(=O)[C@@H]1C[C@@H](S(=O)(=O)c2ccc(Cl)cc2C)CN1C(=O)OC(C)(C)C)C(=O)C(=O)NC1CC1    22600 nM
11  CC[C@H](NC(=O)[C@@H]1C[C@@H](S(=O)(=O)c2ccccc2C(F)(F)F)CN1C(=O)C1(c2ncc(Cl)cc2F)CC1)C(=O)C(=O)NC1CC1      424 nM
12  CCCCNC(=O)C(=O)[C@H](CCC)NC(=O)[C@@H]1C[C@@H](S(=O)(=O)c2ccccc2Cl)CN1C(=O)C1(c2ncc(Cl)cc2F)CC1      172 nM
13  CCNC(=O)C(=O)[C@H](CC)NC(=O)[C@@H]1C[C@@H](S(=O)(=O)c2ccccc2Cl)CN1C(=O)C1(c2ccc(Cl)cc2)CC1      112 nM
14  CC[C@H](NC(=O)[C@@H]1C[C@@H](S(=O)(=O)c2ccccc2Cl)CN1C(=O)C1(c2ccc(Cl)cc2)CC1)C(=O)C(=O)NCc1cccc2ccccc12      386 nM
15  CC[C@H](NC(=O)[C@@H]1C[C@@H](S(=O)(=O)c2ccccc2Cl)CN1C(=O)C1(c2ncc(Cl)cc2F)CC1)C(=O)C(=O)NC1CC1      251 nM
16  CC[C@H](NC(=O)[C@@H]1C[C@@H](S(=O)(=O)c2ccc(OCC(F)(F)F)cc2C(F)(F)F)CN1C(=O)C1(c2ccc(Cl)cc2)CC1)C(=O)C(=O)NC1CC1      291 nM
17  CCC[C@H](NC(=O)[C@@H]1C[C@@H](S(=O)(=O)c2ccccc2Cl)CN1C(=O)C1(c2ccc(Br)cc2)CC1)C(=O)C(=O)NC1CC1     45.4 nM
18  CCCC(C)NC(=O)C(=O)[C@H](CCC)NC(=O)[C@@H]1C[C@@H](S(=O)(=O)c2ccccc2Cl)CN1C(=O)C1(c2ccc(Cl)cc2)CC1 (some centres unmarked)      246 nM
19  CC[C@H](NC(=O)[C@@H]1C[C@@H](S(=O)(=O)c2ccccc2Cl)CN1C(=O)C1(c2ccc(Cl)cc2)CC1)C(=O)C(=O)NCC(C)C     61.6 nM
20  CCC[C@H](NC(=O)[C@@H]1C[C@@H](S(=O)(=O)c2ccccc2C(F)(F)F)CN1C(=O)C1(c2ncc(Cl)cc2F)CC1)C(=O)C(=O)NC1CC1      245 nM
21  CCC[C@H](NC(=O)[C@@H]1C[C@@H](S(=O)(=O)c2ccccc2Cl)CN1C(=O)C1(c2ccc(Cl)cc2)CC1)C(=O)C(=O)N(C)C1CC1     1540 nM
22  CC[C@H](NC(=O)[C@@H]1C[C@@H](S(=O)(=O)c2ccccc2C(F)(F)F)CN1c1ccccc1[N+](=O)[O-])C(=O)c1nc2ccccc2o1   106000 nM
23  CC[C@H](NC(=O)[C@@H]1C[C@@H](S(=O)(=O)c2ccccc2Cl)CN1C(=O)C1(c2ccc(Cl)cc2)CC1)C(=O)C(=O)NC1CCOCC1      188 nM
